Assay: Drug metabolism in P-gp deficient CF-1 mouse intestine assessed as CYP3A-mediated metabolite formation […]
Format: ADME, tissue-based
Settings: excised jejunum tissue
measure name: Vmax (pmol/min/cm²)
Numeric answer only, unit pmol/min/cm² assumed.

-- ask Give its Vmax value. Item: CN(C)C(=O)C(CCN1CCC(O)(c2ccc(Cl)cc2)CC1)(c1ccccc1)c1ccccc1 [LOPERAMIDE]
-- reply 30

* * *

Test: AUC (0 to 120 mins) in P-gp competent CF-1 mouse plasma at 0.4 mg/kg through oral gavage
Format: ADME, organism-based
Set-up: time < 2 hr, dose 0.4 mg/kg, route oral
measure name: AUC(0-t) at 2 h (ng·h/mL)
Dear colleague, please return just the value in ng·h/mL, with no unit written.

-- ask Look up AUC(0-t) at 2 h: C[C@]12CC[C@H]3[C@@H](CCC4=CC(=O)CC[C@@]43C)[C@@H]1CC[C@@H]2O
-- reply 43.3

All figures here come from ChEMBL document CHEMBL3526125.
